- testedOn: HCV NS3 helicase NS3h_1b(con1) (Hepatitis C virus genotype 1b)
- Construct: truncated C-terminally His-tagged NS3 proteins lacking the N-terminal protease, called NS3h; His-tag (C); made in house
- assayExplanation: MBHA screen of NCI mechanistic set library at 20 μM (percent inhibition, compound interference)
- Assay type: biochemical
- assaySetup: compounds at 20 μM, MBHA with a DNA substrate; calculated from Equation 1
assayEndpoint: Inh. (%) (Inhibition)

COc1c(O[C@@H]2O[C@H](CO)[C@@H](O)[C@H](O)[C@H]2O)cc2c(c1OC)-c1ccc(OC)c(=O)cc1[C@@H](NC(C)=O)CC2    −28.7
CC[C@](C)(O)C(=O)O[C@H]1C(=O)O[C@@H]2C[C@H]3C(C)=CC(=O)[C@@H](O)[C@]3(C)[C@H]3C4(O)OC[C@]32[C@@H]1[C@@H](C)[C@H]4O    8.2
CCCCCC/C=C\CCCCCCCCCc1cccc(OC)c1O    −28.4

(P) Nc1nc(-c2cccs2)cs1
(Q) O=C1/C(=C\c2ccccc2)CN(C(=O)/C=C/c2ccccc2)C/C1=C\c1ccccc1
(R) CN1CCN(CCNc2ccc(CO)c3sc4ccccc4c(=O)c23)CC1
Prompt line: Please put the entries in order of rising Inh. (%) (Inhibition). Answer by naming the labels in the order asked.
Response line: Q, P, R
(Q: −20.4%, P: −4.0%, R: 7.6%)

---

- testedOn: HCV NS3 helicase NS3h_1b(con1) (Hepatitis C virus genotype 1b, UniProt Q9WMX2)
- Construct: truncated C-terminally His-tagged NS3 proteins lacking the N-terminal protease, called NS3h; His-tag (C); made in house
- Sequence (Q9WMX2 1192-1657): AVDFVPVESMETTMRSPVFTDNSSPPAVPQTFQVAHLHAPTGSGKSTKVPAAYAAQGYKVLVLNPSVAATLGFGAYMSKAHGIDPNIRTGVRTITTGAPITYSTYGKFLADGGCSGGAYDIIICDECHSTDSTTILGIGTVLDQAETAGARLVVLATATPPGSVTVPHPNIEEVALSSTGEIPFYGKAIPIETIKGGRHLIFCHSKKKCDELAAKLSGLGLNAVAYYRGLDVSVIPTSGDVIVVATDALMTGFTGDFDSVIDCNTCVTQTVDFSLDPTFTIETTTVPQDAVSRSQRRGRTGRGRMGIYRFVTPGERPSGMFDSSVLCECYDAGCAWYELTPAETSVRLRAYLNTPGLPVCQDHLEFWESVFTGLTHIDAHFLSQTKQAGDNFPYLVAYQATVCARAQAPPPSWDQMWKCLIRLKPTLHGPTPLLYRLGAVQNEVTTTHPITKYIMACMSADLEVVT
- assayExplanation: MBHA screen of NCI mechanistic set library at 20 μM (percent inhibition, compound interference)
- Format: biochemical
- assaySetup: compounds at 20 μM, MBHA with DNA substrate; assay interference calculated with Equation 2
assayEndpoint: Int.* (Ratio) (Interference)

Nc1ccc2nc3ccc(=O)cc-3n(-c3ccccc3)c2c1 [Compound 31702]    0.92
Cc1ccc2[c](c1)[Sn]([c]1ccccc1)([c]1ccccc1)[c]1cc(C)ccc1N2C [Compound 118030]    0.92
CO[C@H]1C[C@@H]2CC[C@@H](C)[C@@](O)(O2)C(=O)C(=O)N2CCCC[C@H]2C(=O)O[C@H]([C@H](C)C[C@@H]2CC[C@@H](O)[C@H](OC)C2)CC(=O)[C@H](C)/C=C(\C)[C@@H](O)[C@@H](OC)C(=O)[C@H](C)C[C@H](C)/C=C/C=C/C=C/1C [Compound 226080]    0.90
O=[N+]([O-])c1ccccc1S(=O)(=O)c1ccccc1[N+](=O)[O-] [Compound 633001]    0.89
[O-][Cl+3]([O-])([O-])[O-].c1ccc(-c2csc3c4ccccc4c4ccccc4[n+]23)cc1 [Compound 98904]    0.89

---

- testedOn: HCV NS3 helicase NS3h_1b(con1) (Hepatitis C virus genotype 1b, UniProt Q9WMX2)
- Construct: truncated C-terminally His-tagged NS3 proteins lacking the N-terminal protease, called NS3h; His-tag (C); made in house
- assayExplanation: MBHA screen of NCI mechanistic set library at 20 μM (percent inhibition, compound interference)
- Assay type: biochemical
- assaySetup: compounds at 20 μM; assay interference calculated with Equation 2 (fluorescence vs DMSO-only controls before ATP)
assayEndpoint: Int.* (Ratio) (Interference)

Consider the worked cases shown below.
CN(C)CCCN1c2ccccc2Sc2ccc3ccccc3c21    0.89
CC(C)C(=O)OCN(C)c1nc(N(C)COC(=O)C(C)C)nc(N(C)COC(=O)C(C)C)n1    0.90

(P) Cc1ccc(S(=O)(=O)NC(=O)NC2=NC(C)(C)N(c3ccc(Cl)c(Cl)c3)C(N)=N2)cc1
(Q) CCN(CC)Cc1cc(N=Nc2c(O)ccc3c(N=Nc4ccc(O)c(CN(CC)CC)c4)c(O)ccc23)ccc1O.Cl
Prompt line: Which entry shows the lesser value of Int.* (Ratio) (Interference) here, P or Q ? // respond with label for picked entry
Response line: Q
